Attribution: patent US7981875B2

Test system: J82
test_protocol: MTT test, overall cell growth
Format: cell-based, human
conditions: J82, MTT, 72 hours of incubation; read-out: IC50 value
parameter_measured: IC50

Some compounds with recorded IC50:
>>> result("CC(=O)OCC12CC3OC4(O)C(OC(C)CC45NC(=O)CS5)OC3CC1CCC1C2CCC2(C)C(C3=CC(=O)OC3)CCC12O (stereo not drawn) [Compound C]")
"> 10 µM"
>>> result("CC(=O)OCC12CC3OC4(O)C(OC(C)CC45N=CCS5)OC3CC1CCC1C2CCC2(C)C(C3=CC(=O)OC3)CCC12O (stereo not drawn) [Compound E]")
"> 10 µM"

// moving on: another record for IC50
Exercise: # IC50 lookup, item CC1CC2(NC(=O)CS2)C2(O)OC3CC4(CO)C(CCC5C4CCC4(C)C(C6=CC(=O)OC6)CCC54O)CC3OC2O1 (stereo not drawn) [Compound B]
Key: 5 to 10 µM

----------
Tested on: HCT-15
test_protocol: MTT test, overall cell growth
Format: cell-based, human
conditions: Homo sapiens; HCT-15; Table E, concentration used for flow cytometry, chosen in accordance with MTT results; read-out: IC50
In this section, each of the compounds is paired with its reported pIC50.
In plain terms, pIC50 is the concentration in mol/L turned into minus its base-10 logarithm.

>>> readout_number("C[C@@H]1CC2(N=CCS2)C2(O)O[C@@H]3C[C@]4(C=O)C5CC[C@]6(C)[C@@H](C7=CC(=O)OC7)CC[C@]6(O)[C@@H]5CC[C@H]4C[C@H]3O[C@@H]2O1 (some centres unmarked)")
7.37

Here's the next entry for you.
Exercise: Could you share which pIC50 value was measured for CC1CC2(NC(=O)CS2)C2(O)OC3CC4(C=O)C(CCC5C4CCC4(C)C(C6=CC(=O)OC6)CCC54O)CC3OC2O1 (centres unmarked) ?
Key: 7.92

----------
System: J82
test_protocol: MTT test, overall cell growth
Type: cell-based, human
conditions: Homo sapiens; J82, MTT, 72 hours of incubation; read-out: IC50 value
Reported IC50 by item:

>>> result("C[C@@H]1CC2(N=CCS2)C2(O)O[C@@H]3C[C@]4(C=O)C5CC[C@]6(C)[C@@H](C7=CC(=O)OC7)CC[C@]6(O)[C@@H]5CC[C@H]4C[C@H]3O[C@@H]2O1 (some centres unmarked) [uscharin]")
"5 to 10 µM"

For the next question, use this compound.
Exercise: Which measured IC50 value corresponds to CC1CC2(NC(=O)CS2)C2(O)OC3CC4(C=O)C(CCC5C4CCC4(C)C(C6=CC(=O)OC6)CCC54O)CC3OC2O1 (centres unmarked) [2″oxo-voruscharin, 2″ oxo-voruscharin] ?
Key: > 10 µM

----------
Test system: HCT-15
test_protocol: MTT test, overall cell growth
Type: cell-based, human
conditions: HCT-15, MTT, 72 hours of incubation; read-out: IC50 value
pIC50: −log10 of the molar value.
Below is a list of entries, each paired with its recorded pIC50 value.

Solved entries (count: 2):
>>> result("CC(=O)OCC12CC3OC4(O)C(OC(C)CC45N=CCS5)OC3CC1CCC1C2CCC2(C)C(C3=CC(=O)OC3)CCC12O (stereo not drawn)")
"5.30 to 6.00"
>>> result("CC1CC2(NC(CC(=O)c3ccccc3)CS2)C2(O)OC3CC4(CO)C(CCC5C4CCC4(C)C(C6=CC(=O)OC6)CCC54O)CC3OC2O1 (single isomer, unassigned) [Compound H]")
"7.30 to 8.00"

Exercise: Fill blank: measured pIC50 of the compound CC1CC2(NC(=O)CS2)C2(O)OC3CC4(CO)C(CCC5C4CCC4(C)C(C6=CC(=O)OC6)CCC54O)CC3OC2O1 (stereo not drawn) is ____.
Key: 7.30 to 8.00
